target: GST-tagged GDP-loaded KRAS G12V (amino acids 1-169) (Homo sapiens, UniProt P01116, G12V); experiment: KRAS G12V probe displacement assay (TR-FRET); settings: Table 4; KRAS G12V 2 nM, biotinylated probe 2 2.5 nM
Sequence (P01116 1-169 isoform P01116-2 G12V): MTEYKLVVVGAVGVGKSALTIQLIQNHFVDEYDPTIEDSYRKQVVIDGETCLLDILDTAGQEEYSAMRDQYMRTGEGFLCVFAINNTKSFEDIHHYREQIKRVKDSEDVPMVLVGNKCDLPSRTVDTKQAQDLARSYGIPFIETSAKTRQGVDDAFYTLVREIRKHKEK
pIC50: −log10 of the molar value.
Measurement Name: pIC50

>  <Molecule>
C#Cc1c(F)ccc2cc(O)cc(-c3nc4c5c(nc(OC[C@@]67CCCN6C[C@H](F)C7)nc5c3F)N(C)CCCO4)c12

>  <Assayed Target>
GST-tagged GDP-loaded KRAS G12V (amino acids 1-169) (Homo sapiens, UniProt P01116, G12V)

>  <Measurement Name>
pIC50

>  <Reading>
8.85

$$$$
>  <Molecule>
C[C@@H]1CCOc2c(Cl)c(-c3ccc(F)c4sc(N)c(C#N)c34)c(F)c3nc(OC[C@@]45CCCN4C[C@H](F)C5)nc(c23)N1C

>  <Assayed Target>
GST-tagged GDP-loaded KRAS G12V (amino acids 1-169) (Homo sapiens, UniProt P01116, G12V)

>  <Measurement Name>
pIC50

>  <Reading>
9.19

$$$$
>  <Molecule>
CC1CC(C)N(C)c2nc(OC[C@@]34CCCN3C[C@H](F)C4)nc3c(F)c(-c4cc(N)cc(Cl)c4C(F)(F)F)nc(c23)O1 (stereo partly drawn)

>  <Assayed Target>
GST-tagged GDP-loaded KRAS G12V (amino acids 1-169) (Homo sapiens, UniProt P01116, G12V)

>  <Measurement Name>
pIC50

>  <Reading>
8.77

$$$$
>  <Molecule>
CN1c2nc(OC[C@@]34CCCN3C[C@H](F)C4)nc3c(F)c(-c4cc(N)cc(Cl)c4C(F)(F)F)nc(c23)O[C@H]2COCC[C@@H]21

>  <Assayed Target>
GST-tagged GDP-loaded KRAS G12V (amino acids 1-169) (Homo sapiens, UniProt P01116, G12V)

>  <Measurement Name>
pIC50

>  <Reading>
9.27

$$$$
>  <Molecule>
Nc1cc(Cl)c(C(F)(F)F)c(-c2nc3c4c(nc(OC[C@@]56CCCN5C[C@H](F)C6)nc4c2F)N(C2CC2)CCO3)c1

>  <Assayed Target>
GST-tagged GDP-loaded KRAS G12V (amino acids 1-169) (Homo sapiens, UniProt P01116, G12V)

>  <Measurement Name>
pIC50

>  <Reading>
8.00

$$$$
>  <Molecule>
CCN1c2nc(OCC34CCCN3CC(F)C4)nc3c(F)c(-c4cc(N)cc(Cl)c4C(F)(F)F)nc(c23)OCCC12CC2 (stereo not drawn)

>  <Assayed Target>
GST-tagged GDP-loaded KRAS G12V (amino acids 1-169) (Homo sapiens, UniProt P01116, G12V)

>  <Measurement Name>
pIC50

>  <Reading>
9.24

$$$$
>  <Molecule>
CN1CCCOc2nc(-c3cc(N)cc(Cl)c3C(F)(F)F)c(F)c3nc(OC[C@@]45CCCN4C[C@H](F)C5)nc1c23

>  <Assayed Target>
GST-tagged GDP-loaded KRAS G12V (amino acids 1-169) (Homo sapiens, UniProt P01116, G12V)

>  <Measurement Name>
pIC50

>  <Reading>
8.28

$$$$
>  <Molecule>
CN1CCOC(C)(COc2nc3c4c(nc(-c5cc(N)cc(Cl)c5C(F)(F)F)c(F)c4n2)O[C@H]2COCC[C@@H]2N3C)C1 (stereo partly drawn)

>  <Assayed Target>
GST-tagged GDP-loaded KRAS G12V (amino acids 1-169) (Homo sapiens, UniProt P01116, G12V)

>  <Measurement Name>
pIC50

>  <Reading>
8.96

$$$$
>  <Molecule>
CCN1c2nc(OC[C@@]34CCCN3C[C@H](F)C4)nc3c(F)c(-c4cc(N)cc(C)c4C(F)(F)F)nc(c23)OCCC12CC2

>  <Assayed Target>
GST-tagged GDP-loaded KRAS G12V (amino acids 1-169) (Homo sapiens, UniProt P01116, G12V)

>  <Measurement Name>
pIC50

>  <Reading>
8.77

$$$$
>  <Molecule>
CN1c2nc(OC[C@@]34CCCN3C[C@H](F)C4)nc3c(F)c(-c4cc(N)cc(Cl)c4C(F)(F)F)nc(c23)O[C@@H]2CCC[C@H](O)[C@H]21 (relative stereo)

>  <Assayed Target>
GST-tagged GDP-loaded KRAS G12V (amino acids 1-169) (Homo sapiens, UniProt P01116, G12V)

>  <Measurement Name>
pIC50

>  <Reading>
9.21

$$$$
>  <Molecule>
CCN1c2nc(OC[C@@]34CCCN3C[C@H](F)C4)nc3c(F)c(-c4cc(N)cc(Cl)c4C(F)(F)F)nc(c23)O[C@H]2COCC[C@@H]21

>  <Assayed Target>
GST-tagged GDP-loaded KRAS G12V (amino acids 1-169) (Homo sapiens, UniProt P01116, G12V)

>  <Measurement Name>
pIC50

>  <Reading>
9.31

$$$$
>  <Molecule>
CN1c2nc(OC[C@@]34CCCN3C[C@H](F)C4)nc3c(F)c(-c4cc(N)c(F)c(Cl)c4C(F)(F)F)nc(c23)O[C@H]2COCC[C@@H]21

>  <Assayed Target>
GST-tagged GDP-loaded KRAS G12V (amino acids 1-169) (Homo sapiens, UniProt P01116, G12V)

>  <Measurement Name>
pIC50

>  <Reading>
9.33

$$$$

====

target: GST-tagged GDP-loaded KRAS G12V (amino acids 1-169) (Homo sapiens, UniProt P01116, G12V); assay: KRAS G12V probe displacement assay (TR-FRET); conditions: Table 4; KRAS G12V 2 nM, biotinylated probe 2 2.5 nM
pIC50: −log10 of the molar value.
Entry flag: Y if pIC50 reaches 9; N if it does not.

>  <Molecule>
CN1c2nc(OC[C@@]34CCCN3C[C@H](F)C4)nc3c(F)c(-c4cc(N)cc(Cl)c4C(F)(F)F)nc(c23)OCCC12CCC2

>  <Assayed Target>
GST-tagged GDP-loaded KRAS G12V (amino acids 1-169) (Homo sapiens, UniProt P01116, G12V)

>  <Answer Label>
N

$$$$
>  <Molecule>
CCN1c2nc(OC[C@@]34CCCN3C[C@H](F)C4)nc3c(F)c(-c4cc(N)cc(Cl)c4C(F)(F)F)nc(c23)OCCC12COC2

>  <Assayed Target>
GST-tagged GDP-loaded KRAS G12V (amino acids 1-169) (Homo sapiens, UniProt P01116, G12V)

>  <Answer Label>
Y

$$$$
>  <Molecule>
C#Cc1c(F)ccc2cc(O)cc(-c3cc4c5c(nc(OC[C@@]67CCCN6C[C@H](F)C7)nc5c3F)N(C)CCCO4)c12

>  <Assayed Target>
GST-tagged GDP-loaded KRAS G12V (amino acids 1-169) (Homo sapiens, UniProt P01116, G12V)

>  <Answer Label>
N

$$$$
>  <Molecule>
CN1CCC[C@@]2(COc3nc4c5c(nc(-c6cc(N)cc(Cl)c6C(F)(F)F)c(F)c5n3)O[C@H]3COCC[C@@H]3N4C)CCC[C@@H]12

>  <Assayed Target>
GST-tagged GDP-loaded KRAS G12V (amino acids 1-169) (Homo sapiens, UniProt P01116, G12V)

>  <Answer Label>
Y

$$$$
>  <Molecule>
CN1c2nc(OC[C@@]34CCCN3C[C@H](F)C4)nc3c(F)c(-c4ccc(F)c5sc(N)c(C#N)c45)c(Cl)c(c23)OCCC12COC2

>  <Assayed Target>
GST-tagged GDP-loaded KRAS G12V (amino acids 1-169) (Homo sapiens, UniProt P01116, G12V)

>  <Answer Label>
N

$$$$
>  <Molecule>
CN1c2nc(OC[C@@]34CCCN3C[C@H](F)C4)nc3c(F)c(-c4cc(N)cc(Cl)c4C(F)(F)F)nc(c23)OCCC12CC2

>  <Assayed Target>
GST-tagged GDP-loaded KRAS G12V (amino acids 1-169) (Homo sapiens, UniProt P01116, G12V)

>  <Answer Label>
Y

$$$$
>  <Molecule>
CN1c2nc(OC[C@@]34CCCN3C[C@H](F)C4)nc3c(F)c(-c4cc(N)cc(Cl)c4C(F)(F)F)nc(c23)OC[C@@H]2COC[C@H]21 (single isomer, unassigned) [Example 68 Isomer 2]

>  <Assayed Target>
GST-tagged GDP-loaded KRAS G12V (amino acids 1-169) (Homo sapiens, UniProt P01116, G12V)

>  <Answer Label>
Y

$$$$
>  <Molecule>
CC1COc2nc(-c3cc(N)cc(Cl)c3C(F)(F)F)c(F)c3nc(OC[C@@]45CCCN4C[C@H](F)C5)nc(c23)N1C (stereo partly drawn)

>  <Assayed Target>
GST-tagged GDP-loaded KRAS G12V (amino acids 1-169) (Homo sapiens, UniProt P01116, G12V)

>  <Answer Label>
N

$$$$
>  <Molecule>
CN1c2nc(OC[C@@]34CCCN3C[C@H](F)C4)nc3c(F)c(-c4cc(N)cc(Cl)c4C(F)(F)F)nc(c23)OCCC12CC(O)C2 (stereo partly drawn)

>  <Assayed Target>
GST-tagged GDP-loaded KRAS G12V (amino acids 1-169) (Homo sapiens, UniProt P01116, G12V)

>  <Answer Label>
Y

$$$$
>  <Molecule>
CC1CN(C)c2nc(OC[C@@]34CCCN3C[C@H](F)C4)nc3c(F)c(-c4cc(N)cc(Cl)c4C(F)(F)F)nc(c23)O1 (stereo partly drawn)

>  <Assayed Target>
GST-tagged GDP-loaded KRAS G12V (amino acids 1-169) (Homo sapiens, UniProt P01116, G12V)

>  <Answer Label>
N

$$$$
>  <Molecule>
CN1c2nc(OC[C@@]34CCCN3C[C@H](F)C4)nc3c(F)c(-c4cc(N)cc(Cl)c4C(F)(F)F)nc(c23)O[C@H]2CCCC[C@@H]21

>  <Assayed Target>
GST-tagged GDP-loaded KRAS G12V (amino acids 1-169) (Homo sapiens, UniProt P01116, G12V)

>  <Answer Label>
Y

$$$$
>  <Molecule>
Cc1cc(N)cc(-c2nc3c4c(nc(OC[C@]56CCC[C@H]5N(C)CCC6)nc4c2F)N(C)[C@H]2CCOC[C@@H]2O3)c1C(F)(F)F

>  <Assayed Target>
GST-tagged GDP-loaded KRAS G12V (amino acids 1-169) (Homo sapiens, UniProt P01116, G12V)

>  <Answer Label>
Y

$$$$
>  <Molecule>
CN1c2nc(OC[C@@]34CCCN3C[C@H](F)C4)nc3c(F)c(-c4cc(N)cc(Cl)c4C(F)(F)F)nc(c23)O[C@@H]2CCOC[C@H]21

>  <Assayed Target>
GST-tagged GDP-loaded KRAS G12V (amino acids 1-169) (Homo sapiens, UniProt P01116, G12V)

>  <Answer Label>
Y

$$$$
>  <Molecule>
Nc1cc(Cl)c(C(F)(F)F)c(-c2nc3c4c(nc(OC[C@@]56CCCN5C[C@H](F)C6)nc4c2F)N(C2CC2)CCCO3)c1

>  <Assayed Target>
GST-tagged GDP-loaded KRAS G12V (amino acids 1-169) (Homo sapiens, UniProt P01116, G12V)

>  <Answer Label>
N

$$$$

Origin of measurements: patent US20240262848A1
